- Target or test system: murine BACE1 ECD; further: test concentration or dose not given here
- Sequence (single chain, as listed by the source limits assumed): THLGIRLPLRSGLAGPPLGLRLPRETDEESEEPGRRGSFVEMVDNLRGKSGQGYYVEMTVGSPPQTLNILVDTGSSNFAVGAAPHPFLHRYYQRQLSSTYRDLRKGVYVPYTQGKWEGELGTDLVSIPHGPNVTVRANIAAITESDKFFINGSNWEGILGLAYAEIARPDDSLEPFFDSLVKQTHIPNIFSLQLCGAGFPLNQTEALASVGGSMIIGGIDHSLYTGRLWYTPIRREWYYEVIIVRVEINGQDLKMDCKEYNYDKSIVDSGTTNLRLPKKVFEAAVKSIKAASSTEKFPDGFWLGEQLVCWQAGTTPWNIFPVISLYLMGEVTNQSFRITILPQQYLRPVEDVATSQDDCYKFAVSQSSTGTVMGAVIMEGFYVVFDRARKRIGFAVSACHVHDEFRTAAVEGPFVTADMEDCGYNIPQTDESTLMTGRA
- Measurement notes: cell-based or functional assay
Endpoint name: % inhibition of BACE1 activity, short FRET substrate (%)
Give just the numeric value; % need not be written.

[
  {
    "Binder": "5874 (antibody, V domains shown, anti-BACE1 IgG) VH: EVQLLESGGGLVQPGGSLRLSCAASGFTFGSYAMSWVRQAPGKGLEWVSATSGSGGSTYYADSVKGRFTISRDNSKNTLYLQMDSLRAEDTAVYYCAKGGSQWLYAPGSWFDPWGQGTLVTVSS VL: EIVLTQSPATLSLSPGERATLSCRASQSVSSYLAWYQQKPGQAPRLLIYDASNRATGIPARFSGSGSGTDFTLTISSLEPEDFAVYYCVQRSNFPWTFGGGTKVEIK",
    "Unit tag": "%",
    "Reported": 33
  }
]

Please examine the following record next.
### Prompt Param item = 5887 (antibody, V domains shown, anti-BACE1 IgG) VH: QVQLVQSGAEVKKPGSSVKVSCKASGGTFRGYAISWVRQAPGQGLEWMGNIIPGFGTANYAQKFQGRVTITADESTSTAYMELSSLRSEDTAVYYCARSGGTKYGMLDVWGQGTMVTVSS VL: EIVMTQSPATLSVSPGERATLSCRASQSVSSNLAWYQQKPGQAPRLLIYGASTRATGIPARFSGSGSGTEFTLTISSLQSEDFAVYYCQQLILWPPRTFGGGTKVEIK ; retrieve measured % inhibition of BACE1 activity, short FRET substrate.
### Response -230
